Test system: Saccharomyces cerevisiae;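 note: PSI is a weighted mean of sequencing reads over stability bins, variants kept only with over 10 reads, mCherry proximal and sfGFP distal, peptide attached via GGGS linker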
Test: protein stability index of tFT-peptide fusion (C-terminal peptide) (PSI (0-1 scale)); higher = more stable (slower turnover)
Settings: genetic background: wild type; temperature: 30 C
Answer FALSE if protein stability index is under 0.7, and TRUE if it is 0.7 or more.

Q: Please indicate if the recorded protein stability index for LLPAPLPTALPL meets or exceeds 0.7.
Ans: FALSE

Q: Please indicate if the recorded protein stability index for GFGFWRNLFYWS meets or exceeds 0.7.
Ans: FALSE

Q: Please indicate if the recorded protein stability index for LSFSSLYFPSLC meets or exceeds 0.7.
Ans: FALSE

Q: Please indicate if the recorded protein stability index for FFFCFFIFCFSL meets or exceeds 0.7.
Ans: FALSE

Q: Please indicate if the recorded protein stability index for GGGLSRVEGFGP meets or exceeds 0.7.
Ans: FALSE

Q: Please indicate if the recorded protein stability index for VCLFSVCLWFVS meets or exceeds 0.7.
Ans: FALSE

Q: Please indicate if the recorded protein stability index for PPPTVRLSCVPP meets or exceeds 0.7.
Ans: TRUE

Q: Please indicate if the recorded protein stability index for LGVLVVCFNATY meets or exceeds 0.7.
Ans: FALSE

Q: Please indicate if the recorded protein stability index for GGGGGNAGSHLG meets or exceeds 0.7.
Ans: FALSE

Q: Please indicate if the recorded protein stability index for LVFFAYLIRGAL meets or exceeds 0.7.
Ans: FALSE

Q: Please indicate if the recorded protein stability index for VRDQGWILNMLL meets or exceeds 0.7.
Ans: FALSE

Q: Please indicate if the recorded protein stability index for WGLGLYEENTGC meets or exceeds 0.7.
Ans: TRUE

Q: Please indicate if the recorded protein stability index for KSRLYVDVLMQR meets or exceeds 0.7.
Ans: FALSE

Q: Please indicate if the recorded protein stability index for GGRIITIWNRKM meets or exceeds 0.7.
Ans: FALSE

Q: Please indicate if the recorded protein stability index for GAWWVHGRRVGR meets or exceeds 0.7.
Ans: TRUE

Q: Please indicate if the recorded protein stability index for IISPLRLLPLFF meets or exceeds 0.7.
Ans: FALSE

Q: Please indicate if the recorded protein stability index for PPHLPPSLSVLP meets or exceeds 0.7.
Ans: FALSE

Q: Please indicate if the recorded protein stability index for PINIERNKRIKR meets or exceeds 0.7.
Ans: TRUE

Q: Please indicate if the recorded protein stability index for VLSEHRGLPLTR meets or exceeds 0.7.
Ans: FALSE

Q: Please indicate if the recorded protein stability index for VFLRSGCSGGGE meets or exceeds 0.7.
Ans: TRUE

Q: Please indicate if the recorded protein stability index for WHFPCPPLPCPV meets or exceeds 0.7.
Ans: FALSE

Q: Please indicate if the recorded protein stability index for ERYRDVPVTSNR meets or exceeds 0.7.
Ans: TRUE

Q: Please indicate if the recorded protein stability index for NKHVMELPGEPG meets or exceeds 0.7.
Ans: FALSE

Q: Please indicate if the recorded protein stability index for PPLPSMVLQRIY meets or exceeds 0.7.
Ans: FALSE

Q: Please indicate if the recorded protein stability index for HPPPPAAKVAPV meets or exceeds 0.7.
Ans: FALSE

Q: Please indicate if the recorded protein stability index for VRFRCIPGSPVC meets or exceeds 0.7.
Ans: FALSE

The origin of these recorded values is the supplement of paper PMC10724198.
